# Weight of mouse, Day 3 listing for each entry below
Test: Weight change in the period of drug administration
Format: in vivo, mouse
Conditions: Day 3 from the cancer cell transplantation
Description: Each group includes 5 mice. […] As an index of toxicity, the weight change during the period of drug administration was recorded for the compounds of formulae (1a) and (1b) compared with the comparison compound of Etoposide.

COMPOUND | Weight of mouse, Day 3 / g
COc1cc(C2c3cc4c(cc3CC3COC(=O)C32)OCO4)cc(OC)c1OC(=O)NC(C)C (centres unmarked) | 23.2
COc1cc(C2c3cc4c(cc3CC3COC(=O)C32)OCO4)cc(OC)c1OC(=O)NCCCl (centres unmarked) | 23.6
COc1cc(C2c3cc4c(cc3CC3COC(=O)C32)OCO4)cc(OC)c1OC(=O)CCCCCCN (centres unmarked) | 21.6
COc1cc([C@@H]2c3cc4c(cc3C[C@H]3COC(=O)[C@@H]32)OCO4)cc(OC)c1OC | 24
COc1cc(C2c3cc4c(cc3CC3COC(=O)C32)OCO4)cc(OC)c1OC(=O)CCCN (centres unmarked) | 24.2

====

Test system: A549 cell
Test: Cytotoxicity test (SRB method) for A549 cells
Type: cell-based, human
Conditions: A549 human lung cancer cell, SRB, 48 hours incubation; read-out: ED50(nM) for A549
// boundary case: EC50 equal to 90 nM maps to not fulfilled; strictly smaller maps to fulfilled

MOLECULE | EXPERIMENTAL SYSTEM | QUALITATIVE LABEL
COc1cc(C2c3cc4c(cc3CC3COC(=O)C32)OCO4)cc(OC)c1OC(=O)CN (stereo not drawn) | A549 cell | not fulfilled
COc1cc(C2c3cc4c(cc3CC3COC(=O)C32)OCO4)cc(OC)c1OC(=O)C(N)Cc1ccccc1 (stereo not drawn) | A549 cell | fulfilled
COc1cc(C2c3cc4c(cc3CC3COC(=O)C32)OCO4)cc(OC)c1OC(=O)C(N)CO (stereo not drawn) | A549 cell | fulfilled
COc1cc(C2c3cc4c(cc3CC3COC(=O)C32)OCO4)cc(OC)c1OC(=O)[C@@H](N)Cc1ccc(O)cc1 (stereo partly drawn) | A549 cell | not fulfilled

====

Experiment: Weight change in the period of drug administration
Type: in vivo, mouse
Settings: Day 2 from the cancer cell transplantation
METRIC: Weight of mouse, Day 2 (g)

COMPOUND | NUMERIC READOUT
COc1cc(C2c3cc4c(cc3CC3COC(=O)C32)OCO4)cc(OC)c1OC(=O)NC(C)C (stereo not drawn) | 23.6
COc1cc(C2c3cc4c(cc3CC3COC(=O)C32)OCO4)cc(OC)c1OC(=O)CCCCCCN (stereo not drawn) | 23.8
COc1cc(C2c3cc4c(cc3CC3COC(=O)C32)OCO4)cc(OC)c1OC(=O)CCCCN (stereo not drawn) | 24.2
COc1cc(C2c3cc4c(cc3CC3COC(=O)C32)OCO4)cc(OC)c1OC(=O)C(N)CC(C)C (stereo not drawn) | 24.3
COc1cc(C2c3cc4c(cc3CC3COC(=O)C32)OCO4)cc(OC)c1OC(=O)CCCN (stereo not drawn) | 24
COc1cc(C2c3cc4c(cc3CC3COC(=O)C32)OCO4)cc(OC)c1OC(=O)NCCCl (stereo not drawn) | 23
COc1cc(C2c3cc4c(cc3CC3COC(=O)C32)OCO4)cc(OC)c1OC(=O)NC1CCCCC1 (stereo not drawn) | 23.9
COc1cc(C2c3cc4c(cc3CC3COC(=O)C32)OCO4)cc(OC)c1OC(=O)CCCCCN (stereo not drawn) | 24.2
COc1cc(C2c3cc4c(cc3CC3COC(=O)C32)OCO4)cc(OC)c1OC(=O)NCCO (stereo not drawn) | 23.8

====

# EC50 listing for each entry below
System: A549 cell
Assay: Cytotoxicity test (SRB method) for A549 cells
Type: cell-based, human
Conditions: A549 human lung cancer cell, SRB, 48 hours incubation; read-out: ED50(nM) for A549

MOLECULE | EC50, nM
COc1cc(C2c3cc4c(cc3CC3COC(=O)C32)OCO4)cc(OC)c1OC(=O)NCc1ccccc1 (stereo not shown) | 72
COc1cc(C2c3cc4c(cc3CC3COC(=O)C32)OCO4)cc(OC)c1OC(=O)CCCCCCN (stereo not shown) | 79.6
COc1cc(C2c3cc4c(cc3CC3COC(=O)C32)OCO4)cc(OC)c1OC(=O)Nc1ccc(F)cc1 (stereo not shown) | 86.3
COc1cc(C2c3cc4c(cc3CC3COC(=O)C32)OCO4)cc(OC)c1OC(=O)CCN (stereo not shown) | 96.7
COc1cc(C2c3cc4c(cc3CC3COC(=O)C32)OCO4)cc(OC)c1OC(=O)NC(C)C (stereo not shown) | 153
COc1cc(C2c3cc4c(cc3CC3COC(=O)C32)OCO4)cc(OC)c1OC(=O)[C@H](C)N (stereo partly shown) | 21.9
COc1cc(C2c3cc4c(cc3CC3COC(=O)C32)OCO4)cc(OC)c1OC(=O)NC(=O)c1ccccc1 (stereo not shown) | 77

====

Assay: Weight change in the period of drug administration
Assay type: in vivo, mouse
Conditions: Day 5 from the cancer cell transplantation
# Weight of mouse, Day 5 listing for each entry below
METRIC: Weight of mouse, Day 5 (g)

MOLECULE | NUMERIC READOUT
COc1cc([C@@H]2c3cc4c(cc3[C@@H](O[C@@H]3O[C@@H]5CO[C@@H](C)O[C@H]5[C@H](O)[C@H]3O)[C@H]3COC(=O)[C@H]23)OCO4)cc(OC)c1O [Etoposide, reference compound] | 25.9
COc1cc(C2c3cc4c(cc3CC3COC(=O)C32)OCO4)cc(OC)c1OC(=O)CCN (stereo not drawn) | 25.5
COc1cc(C2c3cc4c(cc3CC3COC(=O)C32)OCO4)cc(OC)c1OC(=O)CCCCCN (stereo not drawn) | 25
COc1cc(C2c3cc4c(cc3CC3COC(=O)C32)OCO4)cc(OC)c1OC(=O)NC1CCCCC1 (stereo not drawn) | 25
COc1cc(C2c3cc4c(cc3CC3COC(=O)C32)OCO4)cc(OC)c1OC(=O)C(N)CC(C)C (stereo not drawn) | 26
COc1cc(C2c3cc4c(cc3CC3COC(=O)C32)OCO4)cc(OC)c1OC(=O)NC(C)C (stereo not drawn) | 25
COc1cc(C2c3cc4c(cc3CC3COC(=O)C32)OCO4)cc(OC)c1OC(=O)NCCO (stereo not drawn) | 23.4
COc1cc(C2c3cc4c(cc3CC3COC(=O)C32)OCO4)cc(OC)c1OC(=O)NCCCl (stereo not drawn) | 26
COc1cc(C2c3cc4c(cc3CC3COC(=O)C32)OCO4)cc(OC)c1OC(=O)CCCCN (stereo not drawn) | 24.8
COc1cc(C2c3cc4c(cc3CC3COC(=O)C32)OCO4)cc(OC)c1OC(=O)CCCCCCN (stereo not drawn) | 22.3
COc1cc(C2c3cc4c(cc3CC3COC(=O)C32)OCO4)cc(OC)c1OC(=O)CCCN (stereo not drawn) | 24.4
COc1cc([C@@H]2c3cc4c(cc3C[C@H]3COC(=O)[C@@H]32)OCO4)cc(OC)c1OC | 24.4

====

Assay: Weight change in the period of drug administration
Assay type: in vivo, mouse
Settings: Day 7 from the cancer cell transplantation
Experimental: Each group includes 5 mice. […] As an index of toxicity, the weight change during the period of drug administration was recorded for the compounds of formulae (1a) and (1b) compared with the comparison compound of Etoposide.

COMPOUND | UNIT ABBREVIATION | Weight of mouse, Day 7
COc1cc(C2c3cc4c(cc3CC3COC(=O)C32)OCO4)cc(OC)c1OC(=O)CCCCCCN (stereo not drawn) | g | 22.8
COc1cc(C2c3cc4c(cc3CC3COC(=O)C32)OCO4)cc(OC)c1OC(=O)CCCCCN (stereo not drawn) | g | 26
COc1cc(C2c3cc4c(cc3CC3COC(=O)C32)OCO4)cc(OC)c1OC(=O)CCN (stereo not drawn) | g | 25
COc1cc([C@@H]2c3cc4c(cc3[C@@H](O[C@@H]3O[C@@H]5CO[C@@H](C)O[C@H]5[C@H](O)[C@H]3O)[C@H]3COC(=O)[C@H]23)OCO4)cc(OC)c1O [Etoposide, reference compound] | g | 25.6
COc1cc(C2c3cc4c(cc3CC3COC(=O)C32)OCO4)cc(OC)c1OC(=O)C(N)CC(C)C (stereo not drawn) | g | 25.3
COc1cc(C2c3cc4c(cc3CC3COC(=O)C32)OCO4)cc(OC)c1OC(=O)NC1CCCCC1 (stereo not drawn) | g | 26
COc1cc(C2c3cc4c(cc3CC3COC(=O)C32)OCO4)cc(OC)c1OC(=O)CCCCN (stereo not drawn) | g | 25.8
COc1cc(C2c3cc4c(cc3CC3COC(=O)C32)OCO4)cc(OC)c1OC(=O)NCCO (stereo not drawn) | g | 23
COc1cc(C2c3cc4c(cc3CC3COC(=O)C32)OCO4)cc(OC)c1OC(=O)NC(C)C (stereo not drawn) | g | 26
COc1cc([C@@H]2c3cc4c(cc3C[C@H]3COC(=O)[C@@H]32)OCO4)cc(OC)c1OC | g | 25
COc1cc(C2c3cc4c(cc3CC3COC(=O)C32)OCO4)cc(OC)c1OC(=O)CCCN (stereo not drawn) | g | 25.4
COc1cc(C2c3cc4c(cc3CC3COC(=O)C32)OCO4)cc(OC)c1OC(=O)NCCCl (stereo not drawn) | g | 26
